Assay: yeast display, Sf9 membrane polyspecificity reagent, FACS + sequencing; frameworks hold sequencing errors
Measured property: polyreactivity (PSR sort gate)

INSERT INTO assay_data (primary_sequence, val) VALUES
  ('QVQLVESGGGLVQAGGSLRLSCAATGITFYINAMAWYIQAPGKESEFVAAIDFNTGDTYYADSVKGRFTISRDTSKNTVYLEMNRLKPEDTAVYYCAADVGYWYGYYYIYDFWAQGTQVTVSS', 'high polyreactivity'),
  ('QVQLVESGGGLVQAGGSLRLSCAASGFTFRTYAMGWYTQAPGKERELVADISGSGGSTYYADSVKGRFTISRDNAKNTVYLQMNSLKPEDTAVYYCAADYASWSNWGYEYWGQGTQVTVSS', 'high polyreactivity'),
  ('QVQLVESGGGLVQAGGSLRLSCAASGSIFSPYAMGWYRQAPGKERELVATITWSGGSTYYADSVKGRFTISRDNAKNTVYLQMNSLKPEDTAVYYCAATRSGYTSYTDDSWGQGTQVTVSS', 'high polyreactivity');

* * *

Assay: yeast display, Sf9 membrane polyspecificity reagent, FACS + sequencing; frameworks hold sequencing errors
Measured property: polyreactivity (PSR sort gate)

Here are 6 sequences together with their reported answers.
INSERT INTO assay_data (primary_sequence, measured_property, val) VALUES
  ('QVQLVESGGGLVQAGGSLRLSCAASGRILYPYAMGWYRQAPGTERELVAAITFRGGNTYYADSVKGRFTISRDNAKNTVYLQMNSLKPEDTAVYYCAKRGGYWHKFDYWGQGTQVTVSS', 'polyreactivity (PSR sort gate)', 'high polyreactivity'),
  ('QVQLVESGGGLVQAGGSLRLSCAASGSTFFTNVMGWYRQAPGKERELVADISSGGDTNYADSVKGRFTISRDNAKNTVYLQMNSLKPEDTAVYYCAVDPNVDYELHGFFFSFDYWGQGTQVTVSS', 'polyreactivity (PSR sort gate)', 'low polyreactivity'),
  ('QVQLVESGGGLVQAGGSLRLSCAASGSIFSRNAMGWYRQAPGKERELVAAISWRGGSTYYADSVKGRFTISRDNAKYTVYLQMNSLKPEDTAVYYCGALSYPGKAGMGYWGQGTQVTVSS', 'polyreactivity (PSR sort gate)', 'high polyreactivity'),
  ('QVQLVETGGGLVQAGGSLRLSCEASGTIFTYAMGWYRQAPRKERELVAVISWSGASTYYADSVKGRLTISRDNAKNSVYLQMNSLKTEDTAVYYCAVYRYYKLVHLYGFDYWGQGTQVTVSS', 'polyreactivity (PSR sort gate)', 'high polyreactivity'),
  ('QVQLVESGGGLVQAGGSLRLSCAASGSTFLTNAMGWYRQAPGKERELGAAITWSTGSTYYADSVKGRFTISRDNAKNTVYLQMNSLKPEDTAVYYCNARSEVSYWWGGYWGQGTQVTVSS', 'polyreactivity (PSR sort gate)', 'low polyreactivity'),
  ('QVQLVESGGGLVQAGGSLRLSCAASGIIFPRNAMGWSREAPGKERELVAAITSGDTTNYADSVKGRFTISRDNAKKTVYLQMNSQKPADTAVYYCAADQFQGNSGFEYWGQGTQVTVSS', 'polyreactivity (PSR sort gate)', 'low polyreactivity');

We next turn to a different sequence, shown below.
Request: Please supply the value of reported polyreactivity (PSR sort gate) for the item QVQLVESGGGLVQAGGSLRLSCAASGITLKKYAMVWYRQAPGKERELVAAISIRGTSTYYADSVKGRFTISRDNAKNSVFLQMNSLKPEDTAVYYFAALYVVGDVRSGYWGQCTQVTVSS
Response: high polyreactivity

* * *

Test: yeast display, Sf9 membrane polyspecificity reagent, FACS + sequencing; frameworks hold sequencing errors
Measured property: polyreactivity (PSR sort gate)

Answered examples (5):
INSERT INTO results (primary_sequence, val) VALUES
  ('QVQLLESCGGLVQAGGSLRLSCAASGSILTQYAMGWYRQAPGKERELVAAITGRGGSTYYADSVKGRFTISRDIAMYTVYLEMNSLKPEDTAVFYCAAEERYAYRYDYWGQGTQVTVSS', 'high polyreactivity'),
  ('QVQLVESGGGLVQAGGSLRLSCAASGLTFGVYAMGWYRQAPGQERELVAASTWGDGSTYYADSVKGRFTISRDNAKNTGYLQMNSLKPEDTAVYYCNAVTRRHKYYYWGQGTQVTVSS', 'high polyreactivity'),
  ('QVQLVESGGGLVQAGGRLRLSCAASGRIFSINAMGWYRQAPGKERELVAAISNRGGSTYYADSVKGRFTISRDNAKNTVYLQLNSLKPEDTAVYYCAARVATSGNYAPYYYWGQGTQVTVSS', 'high polyreactivity'),
  ('QVQLVESGGGLVQAGGSLRLSCAASGIIFKYYAMGWYRPAPGKERELVAAITASGGRTYYADSVKGRFTISRDNAKNTVYLQMNSLKPEDTAVYYCAADSRSAYDYWGQGTQVTVSS', 'high polyreactivity'),
  ('QVQLVESGGGLVQAGGSLRLSCAPSGGTFWIYAMGWYRQAPGKERELVAGITTSGATTYYADSVKGRFTISRDNAKNTVYLQMNSLKPEDTAVYYCAAVIRPRYYQVRPRYDYWGQGTQVTVSS', 'low polyreactivity');

Request: Write down polyreactivity (PSR sort gate) measured for item QVQLVESGGGLVQAGGSLRLSCAASGLIFQVYDIGWYRQAPGKERELVAAISSGSNTNYADSVKGRFTISRDNAKNTVYLQMNSLKPEDTAVYYCAADFQYYFFWEEDYWGQGTQVTVSS
Response: low polyreactivity

Request: Return reported polyreactivity (PSR sort gate). Input sequence: QVQLVESGGGLVQAGGSLRLSCAASGRIFEEYVMGWYRQAPGKERELVAAISFSGSRTYADSVKGRFTISRDNAKNTVYLQMNSLKPEDTAVYYCAADPSISYDYWGQGTQVTVSS
Response: low polyreactivity

* * *

Test: yeast display, Sf9 membrane polyspecificity reagent, FACS + sequencing; frameworks hold sequencing errors
Measured property: polyreactivity (PSR sort gate)

INSERT INTO assay_data (primary_sequence, val) VALUES
  ('QVQLVESGGGLVQAGGSLRLSCAATVSIFDRNAMGWYRQAPGKERELVAAISSVGSTNYADSVKGRFTISRDNAKNTVYLQMNSLKPEDTADYYCAAENEFIPSLFDYWGQGTQVTVSS', 'low polyreactivity'),
  ('QDQLVQSGGGLVQAGGSLRLSCDASGSTLNWYAMGRYRQAPGKERELVAVITSSGVSTYYADSVKGRFTISRDNAKNTVYLQMNSLKPEDTAVYYCNAKWYRWQRGTVKYDYWGQGTQVTVSS', 'low polyreactivity'),
  ('QVQLVESGGGLVQAGGSLRLSCAASGSIFPSYAMGWYRQAPGKERELVATISGSGTRTYYADSVKGRFTISRDNAKNTVYVQMNSLKPEDTAVYDCARLPPGDMDYWGQGTQVTVSS', 'low polyreactivity');

* * *

Experiment: yeast display, Sf9 membrane polyspecificity reagent, FACS + sequencing; frameworks hold sequencing errors
Measured property: polyreactivity (PSR sort gate)

INSERT INTO results (primary_sequence, val) VALUES
  ('QVQLVESGGGLVQAGGSLRLSCAASGRTFDPYAMGWYRQAPGKDRELVAAISRSGGSTYYADSVKGRFTISRDNAKNTVYLQMNSLKPEDTAVYYCAADASRYYYEYDYWGQGTQVTVSS', 'high polyreactivity'),
  ('QVQLVESGGGLVQAGGSLRLSSAASGRIFIGNAMGWYRQAPGKERELVAAISKGGGSTYYADSVKGRFTISRDNAKNTVYLQMNSLKPEDTAVYYCNKLRYPLLPPKYYYWGQGTQVTVSS', 'high polyreactivity'),
  ('QVQLVESGGGLVQAGGSLRLSCASSGFTFGYYTKGWYRQAPGKERELVAAITSGGGTYYADSVKGRFTISRDNAKNTVYLQMKSLKPEDTAVYYCATTPGLYKVSSRYGYWGQGTQVTVSS', 'high polyreactivity');

* * *

Assay: yeast display, Sf9 membrane polyspecificity reagent, FACS + sequencing; frameworks hold sequencing errors
Measured property: polyreactivity (PSR sort gate)

INSERT INTO measurements (primary_sequence, measured_property, val) VALUES
  ('QVQLLESGGGLVQAGGSLRLTCAASVIIFYPYAMVWYRQAPGKERELVAAISIGGGSTYYADSVKGRFTISRDNAKNTVYLQMNSLKPEDTAVYYCAAGTPYGILGYYYWGQGTQVTVSS', 'polyreactivity (PSR sort gate)', 'low polyreactivity'),
  ('QVQLVESGGGLVQAGGSLRLSCAASGFIFGTNAMGWYRQAPGKERELVAAISIGDSTYYADSVKGRFTISRDNAKNTVYVQKNSLKPEDTAVYYCNARAYSIYLLQKTYAFNYWGQGTQVTVSS', 'polyreactivity (PSR sort gate)', 'low polyreactivity'),
  ('QVQLVESGGGLVQAGGSLRLSCAASGYIFPGNAMGWYRQAPGKERELVATITDDTSTNYADSVKGRFTISRDNAKNTVYLQMNSLKPEDTAVYYCAADLYYWYPYLYDYWGQGTQVTVSS', 'polyreactivity (PSR sort gate)', 'low polyreactivity'),
  ('QVQLVESGGGLVQAGGSLRLSCAASGRIFYVYTMGWYRQAPGKERELVASIRRSGGSTYYADSVKGRFTISRDNAKNTVYLQMNSLKPEDTAVYYCAARYNSAANDKRYYYWGQGTQVTVSS', 'polyreactivity (PSR sort gate)', 'high polyreactivity'),
  ('QVQLVESGGGLVQAGGSLRFSCAASGFIFYYYDMGWYRQAPGKERELVATISRGGSTYYADSVKGRFTISRDNAKNTVYLQMNSLKPEDTAVYYCAAYRSFGYRNWNRFDYWGQGTQVTVSS', 'polyreactivity (PSR sort gate)', 'high polyreactivity');

Request: Consider the sequence QVQLVESGGGLVQAGGSLRLSCAASGSIFYGNAMGWYRQAPGKERELVAAISARGGSTNYADSVKGRFTISRDNAKNTVYLQMNSLKPEDTAVYYCAADTPVWSGYWYDYWGQGTQVTVSS and give its recorded polyreactivity (PSR sort gate).
Response: low polyreactivity

// provenance: the nanobody polyreactivity screen of Harvey et al. (2022)
